biological target: UniProt:P00797; assay: In vitro inhibitory activity against human plasma renin; format: cell-free
Non-standard residues stand in square brackets, D forms with d. Residues, ends and D or L forms follow the SMILES beside them. *: point of attachment. Sta = CC(C)C[C@H](N)[C@@H](O)CC(=O)O; Boc = CC(C)(C)OC(=O)*
Reported pIC50 values follow for various molecules
Expect pIC50 as a plain number equal to -log10 of the molar concentration.

COC(=O)C[C@H](O)[C@H](CC(C)C)NC(=O)[C@H](C)NC(=O)C[C@H](O)[C@H](CC(C)C)NC(=O)[C@H](Cc1ccccc1)NC(=O)[C@H](Cc1ccccc1)NC(C)=O (Ac-FF[Sta]A[Sta]-OMe); 5.85

Next molecule, pIC50 to be filled in.
I'd like to know its pIC50. The molecule in question is COC(=O)C[C@H](O)[C@H](CC(C)C)NC(=O)[C@H](C)NC(=O)C[C@H](O)[C@H](CC(C)C)NC(=O)[C@H](Cc1c[nH]cn1)NC(=O)[C@H](Cc1c[nH]c2ccccc12)NC(=O)OC(C)(C)C (Boc-WH[Sta]A[Sta]-OMe)
6.85

###

Reported IC50 values follow for various molecules
Biological target: Renin (Homo sapiens, UniProt P00797)
Sequence (P00797 whole entry): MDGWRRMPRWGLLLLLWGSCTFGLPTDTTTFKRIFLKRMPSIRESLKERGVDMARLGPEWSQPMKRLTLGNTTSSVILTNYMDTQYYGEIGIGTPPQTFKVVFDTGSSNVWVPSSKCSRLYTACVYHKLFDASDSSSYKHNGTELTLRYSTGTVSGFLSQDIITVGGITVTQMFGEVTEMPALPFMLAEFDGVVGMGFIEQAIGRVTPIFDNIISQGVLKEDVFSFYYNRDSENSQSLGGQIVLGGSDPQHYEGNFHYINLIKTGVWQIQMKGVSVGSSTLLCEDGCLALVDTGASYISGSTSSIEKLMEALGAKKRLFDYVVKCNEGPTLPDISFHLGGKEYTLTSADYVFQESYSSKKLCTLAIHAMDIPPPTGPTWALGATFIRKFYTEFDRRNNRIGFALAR
Assay: In vitro inhibitory activity against human plasma renin
Format: cell-free
Non-standard residues stand in square brackets, D forms with d. Residues, ends and D or L forms follow the SMILES beside them. *: point of attachment. Sta = CC(C)C[C@H](N)[C@@H](O)CC(=O)O; Isovaleryl = CC(C)CC(=O)*
// units = nM; emit number, no label

COC(=O)CC(O)[C@H](CC(C)C)NC(=O)[C@H](C)NC(=O)CC(O)[C@H](CC(C)C)NC(=O)CNC(=O)[C@H](Cc1ccccc1)NC(=O)CC(C)C (stereo not given in full); 4700

Could you share what IC50 was measured for COC(=O)C[C@H](O)[C@H](CC(C)C)NC(=O)[C@H](C)NC(=O)C[C@H](O)[C@H](CC(C)C)NC(=O)[C@H](CC(C)C)NC(=O)[C@H](Cc1ccccc1)NC(=O)CC(C)C (Isovaleryl-FL[Sta]A[Sta]-OMe) , tested on Renin (Homo sapiens, UniProt P00797)?
75

Again, but for COC(=O)C[C@H](O)[C@H](CC(C)C)NC(=O)[C@H](C)NC(=O)C[C@H](O)[C@H](CC(C)C)NC(=O)[C@H](Cc1ccccc1)NC(=O)[C@H](Cc1ccccc1)NC(=O)CC(C)C (Isovaleryl-FF[Sta]A[Sta]-OMe)
320

###

Reported pIC50 values follow for various molecules
Target: Renin (Rattus norvegicus)
Sequence (P08424 whole entry): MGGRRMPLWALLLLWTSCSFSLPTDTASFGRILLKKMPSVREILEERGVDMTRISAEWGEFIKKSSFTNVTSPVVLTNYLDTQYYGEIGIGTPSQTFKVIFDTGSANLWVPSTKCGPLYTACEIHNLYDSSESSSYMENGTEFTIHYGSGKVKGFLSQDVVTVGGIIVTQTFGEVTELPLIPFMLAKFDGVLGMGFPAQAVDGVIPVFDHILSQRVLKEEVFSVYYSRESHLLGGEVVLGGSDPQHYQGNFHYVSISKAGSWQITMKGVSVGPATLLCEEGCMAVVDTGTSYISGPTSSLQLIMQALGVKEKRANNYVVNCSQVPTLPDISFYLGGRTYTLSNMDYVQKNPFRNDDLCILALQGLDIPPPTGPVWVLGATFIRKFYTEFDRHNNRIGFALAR
Assay: In vitro inhibitory activity against rat plasma renin
Type: cell-free
Non-standard residues stand in square brackets, D forms with d. Residues, ends and D or L forms follow the SMILES beside them. *: point of attachment. Ala(1-Adamantyl) = N[C@@H](CC12CC3CC(CC(C3)C1)C2)C(=O)O; Sta = CC(C)C[C@H](N)[C@@H](O)CC(=O)O; NMeF = CN[C@@H](Cc1ccccc1)C(=O)O; Boc = CC(C)(C)OC(=O)*
Expect pIC50 as a plain number equal to -log10 of the molar concentration.

Answered examples (3):
COC(=O)C[C@H](O)[C@H](CC(C)C)NC(=O)[C@H](C)NC(=O)C[C@H](O)[C@H](CC(C)C)NC(=O)[C@H](Cc1c[nH]cn1)NC(=O)[C@H](CC12CC3CC(CC(C3)C1)C2)NC(=O)OC(C)(C)C (Boc-[Ala(1-Adamantyl)]H[Sta]A[Sta]-OMe); 5.66
COC(=O)C[C@H](O)[C@H](CC(C)C)NC(=O)[C@H](C)NC(=O)C[C@H](O)[C@H](CC(C)C)NC(=O)[C@H](Cc1ccccc1)NC(=O)[C@H](Cc1ccccc1)N(C)C(=O)OC(C)(C)C (Boc-[NMeF]F[Sta]A[Sta]-OMe); 4.77
CCC[C@H](N[C@@H](CC(C)C)[C@@H](O)CC(=O)N[C@@H](C)C(=O)N[C@@H](CC(C)C)[C@@H](O)CC(=O)OC)C(=O)N[C@@H](Cc1ccccc1)C(=O)NC(=O)CC(C)C; 6.06

Next molecule, pIC50 to be filled in.
I'd like to know its pIC50. The molecule in question is COC(=O)C[C@H](O)[C@H](CC(C)C)NC(=O)[C@H](C)NC(=O)C[C@H](O)[C@H](CC(C)C)NC(=O)[C@H](Cc1ccccc1)NC(=O)[C@H](Cc1ccccc1)NC(=O)OC(C)(C)C
6.72
